Measured remaining at 24 h, 10000 µM, listed per entry for reference.
test: Stability of compound in GSH at pH 7.4 assessed as parent compound remaining at 10 mM and measured after 24 hrs by HPLC-UV analysis; assay type: physicochemical; settings: GSH solution, read-out: Stability
All answers are understood in %, so give the number only.

Solved cases (2 shown):
{"test-smiles": "CC(C)(O)c1ccc(NC(=O)c2cc(C(=O)NCc3ccc(F)c(F)c3)c(F)cc2Cl)cc1", "unit-string": "%", "reading": 100}
{"test-smiles": "Cc1cc(N2CCOCC2)cnc1NC(=O)c1cc(C(=O)NCc2ccc(F)c(F)c2)c(F)cc1Cl", "unit-string": "%", "reading": 100}

## Input Item "Cc1cc(OC(F)F)ccc1NC(=O)c1cc(C(=O)NCc2ccc(F)cc2)c(F)cc1Cl" has what recorded remaining at 24 h, 10000 µM?
## Output 32

###

biological target: Peroxisome proliferator-activated receptor gamma (Homo sapiens); test: Inverse agonist activity at GST tagged human PPARgamma LBD (231 to 505 residues) expressed in Escherichia coli BL21(DE3) assessed as recruitment of fluorescein labeled corepressor NCOR2 Smrt-ID2 peptide to PPARgamma LBD incubated for 24 hrs by LanthaScreen TR-FRET assay
Sequence (P37231 whole entry, the tested form may be a part): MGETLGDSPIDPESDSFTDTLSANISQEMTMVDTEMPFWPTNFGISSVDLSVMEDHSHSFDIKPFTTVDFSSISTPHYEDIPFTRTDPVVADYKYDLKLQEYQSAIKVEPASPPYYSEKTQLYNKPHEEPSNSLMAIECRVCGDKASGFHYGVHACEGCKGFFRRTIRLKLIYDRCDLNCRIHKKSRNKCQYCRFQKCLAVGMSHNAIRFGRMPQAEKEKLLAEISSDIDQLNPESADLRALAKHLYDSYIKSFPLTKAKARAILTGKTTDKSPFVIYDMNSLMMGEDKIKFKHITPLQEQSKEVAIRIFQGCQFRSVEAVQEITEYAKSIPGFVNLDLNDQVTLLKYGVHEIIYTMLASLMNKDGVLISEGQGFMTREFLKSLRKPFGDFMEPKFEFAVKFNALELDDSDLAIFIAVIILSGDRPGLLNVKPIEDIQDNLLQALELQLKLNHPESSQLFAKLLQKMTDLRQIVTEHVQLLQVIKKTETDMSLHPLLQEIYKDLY
measured-metric: pEC50
The quantity pEC50 is defined as the negative base-10 logarithm of the molar concentration.

Take a look at these entries with their results.
{"test-smiles": "O=C(NCc1ccc(Cl)cc1)c1ccc(Cl)c(C(=O)Nc2ccccc2)c1", "measured-metric": "pEC50", "reading": 5.14}
{"test-smiles": "O=C(NCc1ccccc1)c1cc(C(=O)Nc2ccccc2)c(Cl)c(C(F)(F)F)c1", "measured-metric": "pEC50", "reading": 5.66}
{"test-smiles": "Cc1ccccc1CNC(=O)c1ccc(Cl)c(C(=O)Nc2ccccc2)c1", "measured-metric": "pEC50", "reading": 5.75}
{"test-smiles": "Cc1cccnc1NC(=O)c1cc(C(=O)NCc2ccc(F)c(F)c2)c(F)cc1Cl", "measured-metric": "pEC50", "reading": 6.30}

## Input Report pEC50 for "COCCOCc1cc(F)ccc1CNC(=O)c1cc(C(=O)Nc2ccc(C(F)(F)F)cc2C)c(Cl)cc1F" please.
## Output 7.51

###

Target: Peroxisome proliferator-activated receptor alpha (Homo sapiens, UniProt Q07869)
Sequence (Q07869 whole entry): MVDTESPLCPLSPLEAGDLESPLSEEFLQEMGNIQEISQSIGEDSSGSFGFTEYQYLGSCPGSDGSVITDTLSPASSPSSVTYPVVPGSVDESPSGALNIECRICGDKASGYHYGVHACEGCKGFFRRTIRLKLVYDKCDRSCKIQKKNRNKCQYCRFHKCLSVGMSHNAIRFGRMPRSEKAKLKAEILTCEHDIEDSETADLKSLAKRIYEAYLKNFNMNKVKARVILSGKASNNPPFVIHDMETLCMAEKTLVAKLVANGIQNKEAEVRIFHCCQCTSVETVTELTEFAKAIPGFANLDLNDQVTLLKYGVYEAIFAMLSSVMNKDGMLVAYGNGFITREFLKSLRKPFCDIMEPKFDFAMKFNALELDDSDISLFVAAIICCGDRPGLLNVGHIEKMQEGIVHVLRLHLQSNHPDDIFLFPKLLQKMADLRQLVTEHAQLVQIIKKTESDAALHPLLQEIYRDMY
Test: Agonist activity at human PPARalpha expressed in CHO cells co-expressing GAL4-NHR-LBD assessed as transcriptional activation preincubated for 6 hrs followed by luciferin addition by luminescence method
Here the recorded IC50 is given for each entry.
# unit: µM | format: bare number

## Input Fill in the recorded IC50 for this molecule, with Peroxisome proliferator-activated receptor alpha (Homo sapiens, UniProt Q07869) as test system: "Cc1c(C)n(Cc2ccc(Cl)c(O[C@@H](C)C(=O)O)c2)c2ccc(C(=O)N[C@@H](C)c3ccc(C(C)(C)C)cc3)cc12"
## Output 0.935

## Input Same question, "O=C(Nc1ccncc1)c1cc([N+](=O)[O-])ccc1Cl" this time
## Output 2.95
